# target_of_assay: ZFP SBS#1103 (synthetic)
# Sequence (chain, as listed by the source): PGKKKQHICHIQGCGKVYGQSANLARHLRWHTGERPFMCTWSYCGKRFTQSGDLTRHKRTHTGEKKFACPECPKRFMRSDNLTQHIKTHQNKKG
# protocol_text: EMSA
# particulars: tags: MBP fusion
property: Kd (nM)
Numeric only. Scale: nM

query: Output measured Kd for this item: AAGGCAGAA (dsDNA) DNA 1: AAGGCAGAA DNA 2: TTCTGCCTT
result: 1.4
